System: LOX IMVI
Experiment: NCI tumour cell line growth inhibition, 48 h
The source made the active and inactive calls. Rule as the data show it: active = GI50 up to about 1.1 µM and inactive = higher.
MEASURED_ENDPOINT: GI50

{"columns": ["MOLECULE", "GI50"],
 "data": [
  ["CCCOC(=O)c1cc(C(=CCC[C@H]2CC[C@@]3(C)[C@@H](CC[C@@H]4[C@@H]3CC[C@]3(C)[C@@H](C(C)CCCC(C)C)CC[C@@H]43)C2)c2cc(Cl)c(O)c(C(=O)OCCC)c2)cc(Cl)c1O (stereo partly drawn)", "> 50 µM (inactive)"]
]}

Inquiry: Any idea what GI50 was measured for COc1ccc2c(c1OCC(=O)O)C(=O)C(CCC(=O)O)CC2 (stereo not drawn) ?
Reply text: > 100 µM (inactive)

Inquiry: Any idea what GI50 was measured for CCCCCCCCCCCC1=NCCN1 ?
Reply text: 3.75 µM (inactive)

* * *

System: NCI-H522
Assay: NCI tumour cell line growth inhibition, 48 h
Calls of active or inactive are those of the source. Rule as the data show it: active = GI50 up to about 1.1 µM and inactive = higher.
Form entry, call: pick from true (active), false (inactive)

The examples below pair each entry with its known result.
{"columns": ["MOLECULE", "LABEL_VALUE"],
 "data": [
  ["COC1CC(OC2CCC3(C)C(=CCC4C3C(OC(C)=O)C(OC(=O)CC(C)C)C3(C)C(C(C)=O)CCC43O)C2)OC(C)C1OC1CC(OC)C(OC2CC(OC)C(OC3OC(C)C(O)C(OC)C3O)C(C)O2)C(C)O1 (stereo not drawn)", "false"],
  ["O=[N+]([O-])/C=C/c1cc(Cl)c(/C=C/[N+](=O)[O-])cc1Cl", "true"]
]}

Now look at this entry.
Inquiry: What was the test verdict on CCOC(=O)c1c(O)nc(O)c(CC)c1C ?
Reply text: false

* * *

System: A498
Test: NCI tumour cell line growth inhibition, 48 h
Calls of active or inactive are those of the source. Rule as the data show it: active = GI50 up to about 1.1 µM and inactive = higher.
MEASURED_ENDPOINT: GI50

Some solved entries appear below for comparison.
{"columns": ["COMPOUND", "GI50"],
 "data": [
  ["CCCn1cc2c3c(cccc31)C1C=C(C)CN(C)C1C2 (stereo unspecified)", "13.7 µM (inactive)"],
  ["CC(=O)Oc1ccc2c(=O)c(C(C)=O)coc2c1", "58.1 µM (inactive)"],
  ["CC(=O)/N=C1/N(/C=C2\\C(=O)Oc3ccccc3C2=O)C(=O)/C(=C/c2ccc(NC(C)=O)cc2)N1C", "> 100 µM (inactive)"],
  ["CCCCCCCCCCCCCCCCCCNc1ccn(C2OC(COP(=O)(O)OCC3OC(n4cc(F)c(=O)[nH]c4=O)CC3O)C(O)C2O)c(=O)n1 (stereo unspecified)", "33.3 µM (inactive)"],
  ["[O-][N+]1=C(c2ccccc2)COc2ccccc21", "> 100 µM (inactive)"]
]}

Inquiry: I'm curious: which GI50 was measured for CCOC(=O)c1cc(C)n(CN(CCO)Cn2nc(C(=O)OCC)cc2C)n1 tested on A498?
Reply text: > 100 µM (inactive)

Inquiry: I'm curious: which GI50 was measured for CCOC(=O)c1oc2c(OC)cc(Cl)c3c2c1CCC3 tested on A498?
Reply text: 69.8 µM (inactive)

Inquiry: I'm curious: which GI50 was measured for O=C(O)c1ccc(NNc2cc(=O)[nH]c(=O)[nH]2)cc1 tested on A498?
Reply text: > 100 µM (inactive)

* * *

System: NCI/ADR-RES
Assay: NCI tumour cell line growth inhibition, 48 h
Activity calls are given as the source filed them. No stated cut-off is given here; in the data, active = GI50 up to about 1.1 µM and inactive = higher.
MEASURED_ENDPOINT: GI50

Some solved entries appear below for comparison.
{"columns": ["MOLECULE", "OBSERVED_RESULT"],
 "data": [
  ["NNC(=O)c1nn[nH]c1SSc1[nH]nnc1C(=O)NN", "> 100 µM (inactive)"],
  ["Cc1cc2nc3c(C#N)c4c(c(Nc5ccc(F)cc5)n3c2cc1C)CCC4", "> 100 µM (inactive)"],
  ["COc1ccc(N)c(C(O)CCNC(C)=O)c1 (centres undefined)", "> 100 µM (inactive)"],
  ["Cc1ncc([N+](=O)[O-])n1CCN(C)C(=O)CCCn1ccnc1[N+](=O)[O-]", "> 100 µM (inactive)"],
  ["Cc1cc(O)c(C(C)C)cc1C1(c2cc(C(C)C)c(O)cc2C)OC(=O)c2ccccc21", "2.9 µM (inactive)"]
]}

Inquiry: Any idea what GI50 was measured for O=C(NC1(C(=O)NNc2nnc(-c3ccccc3)c(-c3ccccc3)n2)C(c2ccccc2)C(c2ccccc2)=NN1c1ccccc1)c1ccccc1 (centres undefined) ?
Reply text: > 100 µM (inactive)

Inquiry: Any idea what GI50 was measured for O=C(CCc1cc(O)cc(O)c1)NCCc1ccc(O)c(O)c1 ?
Reply text: > 100 µM (inactive)

Inquiry: Any idea what GI50 was measured for CO/C(=N\N=C\c1ccc(OC)c(OC)c1)c1ccncc1 ?
Reply text: > 10 µM (inactive)

* * *

Test system: SF-539
Assay: NCI tumour cell line growth inhibition, 48 h
Activity calls are given as the source filed them. Cut-off read from the data, not from the text of the source: active = GI50 up to about 1.1 µM and inactive = higher.
Form entry, call: pick from active, inactive

{"columns": ["COMPOUND", "LABEL_VALUE"],
 "data": [
  ["CCOC(=O)c1nc2c(nc1C(=O)OCC)C(=O)c1ccccc1C2=O", "active"],
  ["O[C@H]1[C@H](O)[C@@H](Cn2nnc(-c3ccccc3)c2-c2ccccc2)OCO[C@@H]1Cn1nnc(-c2ccccc2)c1-c1ccccc1", "inactive"],
  ["O=c1c2c(nc3n1CCC3)sc1c(O)c(Br)ccc12", "inactive"],
  ["CCCCC1=CC1(C#N)[N+](=O)[O-] (stereo unspecified)", "inactive"],
  ["COc1cc(OC)c2nc(C)c3c(c2c1)SCC3", "inactive"]
]}

Inquiry: What was the test verdict on c1ccc([P+](Cc2ccc(C[P+](c3ccccc3)(c3ccccc3)c3ccccc3)s2)(c2ccccc2)c2ccccc2)cc1 ?
Reply text: inactive

* * *

Test system: NCI-H226
Experiment: NCI tumour cell line growth inhibition, 48 h
The source made the active and inactive calls. Cut-off read from the data, not from the text of the source: active = GI50 up to about 1.1 µM and inactive = higher.
Overview of reported GI50 across a group of compounds:

Some solved entries appear below for comparison.
{"columns": ["COMPOUND", "GI50"],
 "data": [
  ["CC(=O)c1ccccc1NC(=O)C(=O)C(C(=O)c1ccc2ccccc2c1)C1OC(=O)c2ccccc21 (stereo not drawn)", "2.26 µM (inactive)"],
  ["N#C/C(=C\\c1c(Cl)cccc1Cl)c1ccccc1", "> 22.9 µM (inactive)"],
  ["COC1=C(C)C(=O)C2=C(C1=O)C1C3CC4=C(C(=O)C(OC)=C(C)C4=O)C(CNC(=O)C(C)=O)N3C(C#N)C(C2)N1C (stereo not drawn)", "0.0177 µM (active)"],
  ["O=C(O)c1cnc2[nH]ccn2c1=O", "> 100 µM (inactive)"],
  ["Nc1ccc(C(=O)NN2C(=O)C(Cl)C2c2cc(Br)ccc2O)cc1 (stereo not drawn)", "> 100 µM (inactive)"]
]}

Inquiry: Any idea what GI50 was measured for Clc1cc(C(c2cc(Cl)sc2Cl)c2cc(Cl)sc2Cl)c(Cl)s1 ?
Reply text: > 100 µM (inactive)

* * *

System: NCI-H460
Test: NCI tumour cell line growth inhibition, 48 h
Calls of active or inactive are those of the source. Cut-off read from the data, not from the text of the source: active = GI50 up to about 1.1 µM and inactive = higher.
Form entry, call: pick from active, inactive

The examples below pair each entry with its known result.
{"columns": ["MOLECULE", "LABEL_VALUE"],
 "data": [
  ["COc1ccc(/C=C2\\C=Cc3ccccc32)cc1OC", "inactive"],
  ["COc1cc2nc(-c3cccs3)nc(N3C(c4ccc(O)cc4)=NNC(=O)c4ccccc43)c2cc1OC", "inactive"],
  ["NCCOc1ccccn1", "inactive"],
  ["C=CCN1CCC2(CC1)NC(=O)c1ccccc1O2", "inactive"],
  ["CC1(C=O)CC(CCc2ccccc2)NC1Cc1ccc(O)cc1 (stereo not given)", "inactive"],
  ["CCCCCCCCCCCCCCCCCCNc1ccn(C2OC(COP(=O)(O)OCC3OC(n4cc(F)c(=O)[nH]c4=O)CC3O)C(O)C2O)c(=O)n1 (stereo not given)", "inactive"],
  ["CC1(C)N=c2[nH]cnc2=C(C(N)=O)N1", "inactive"],
  ["CN(C)c1ccc(/C=C/C(=O)N[C@@H]2C(=O)N3[C@@H]2SC(C)(C)[C@@H]3C(=O)O)cc1", "inactive"]
]}

Inquiry: What was the test verdict on CC(C)C(Nc1c2ccccc2[n+](C)c2ccccc12)C(=O)O (stereo not given) ?
Reply text: inactive

Inquiry: What was the test verdict on CC(=O)N1N=C(c2ccc3ccccc3c2O)CC1c1ccc(Cl)cc1Cl (stereo not given) ?
Reply text: inactive

* * *

Test system: T47D
Experiment: NCI tumour cell line growth inhibition, 48 h
Calls of active or inactive are those of the source. No stated cut-off is given here; in the data, active = GI50 up to about 1.1 µM and inactive = higher.
Overview of reported GI50 across a group of compounds:

Some solved entries appear below for comparison.
{"columns": ["COMPOUND", "MEASUREMENT_TARGET", "OBSERVED_RESULT"],
 "data": [
  ["O=c1[nH]c(=O)n(C/C=C/CBr)nc1Br", "T47D", "12.6 µM (inactive)"],
  ["COP(=O)(C(/C=C/c1ccccc1)OC(C)=O)[C@@H]1CCCC[C@H]1N(CC(C)(C)C)C(C)=O (stereo not given in full)", "T47D", "5.87 µM (inactive)"],
  ["O=C(CCc1cc(O)cc(O)c1)NCCc1ccc(O)c(O)c1", "T47D", "> 100 µM (inactive)"],
  ["CN(CCC(=O)O)S(=O)(=O)c1ccccc1", "T47D", "> 100 µM (inactive)"],
  ["COC(=O)Nc1nc2cc(NS(=O)(=O)c3ccc(Cl)cc3)ccc2[nH]1", "T47D", "19.1 µM (inactive)"]
]}

Inquiry: Any idea what GI50 was measured for C=CC1CCC[N+]1(CC(=O)OCC)Cc1ccccc1 (stereo not given) ?
Reply text: > 100 µM (inactive)

Inquiry: Any idea what GI50 was measured for NC(=S)N/N=C\CC(O)(C(F)(F)F)C(F)(F)F ?
Reply text: > 10 µM (inactive)

Inquiry: Any idea what GI50 was measured for Brc1cccc(Nc2ncnc3sc4c(c23)CCC(Nc2cccc(Br)c2)C4)c1 (stereo not given) ?
Reply text: 6.55 µM (inactive)

Inquiry: Any idea what GI50 was measured for Cn1ccc(C(=O)NCCCCCNC(=O)c2ccn(C)c(=O)c2O)c(O)c1=O ?
Reply text: > 100 µM (inactive)

Inquiry: Any idea what GI50 was measured for CCOC(=O)c1cc(=O)oc2c1N(C)c1ncccc1N2 ?
Reply text: > 100 µM (inactive)
